Target: T1, recombinant human Tau monomer, 2N4R isoform (amino acids 2-441) (human, UniProt P10636-8 2-441)
T1 construct: range 2-441; N-terminal His-tag removed with TEV protease; also called monomeric Tau
T1 sequence (P10636 other isoform, or with tags, fused parts or gaps limits assumed): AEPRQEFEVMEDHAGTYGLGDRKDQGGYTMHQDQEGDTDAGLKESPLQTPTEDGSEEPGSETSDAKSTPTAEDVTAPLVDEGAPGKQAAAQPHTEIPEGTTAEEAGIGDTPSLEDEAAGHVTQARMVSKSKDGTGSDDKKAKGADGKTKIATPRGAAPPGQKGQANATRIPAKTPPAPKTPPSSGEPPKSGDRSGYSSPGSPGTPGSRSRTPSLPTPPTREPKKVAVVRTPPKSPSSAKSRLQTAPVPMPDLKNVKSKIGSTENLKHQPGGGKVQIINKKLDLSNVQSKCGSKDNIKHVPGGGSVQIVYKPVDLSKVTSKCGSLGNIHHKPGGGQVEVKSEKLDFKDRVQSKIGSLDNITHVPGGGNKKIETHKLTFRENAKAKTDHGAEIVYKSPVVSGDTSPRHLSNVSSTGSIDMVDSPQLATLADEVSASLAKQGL
Assay: SPR, captured IgG, Tau monomer analyte, 1:1 model; fit-quality column: Yes
The entries below come with measured pKd values attached.
In textbook form, pKd equals minus log to base ten of the concentration in mol/L.

binder | pKd
hu37D3.v28.B1 (antibody, V domains shown) VH: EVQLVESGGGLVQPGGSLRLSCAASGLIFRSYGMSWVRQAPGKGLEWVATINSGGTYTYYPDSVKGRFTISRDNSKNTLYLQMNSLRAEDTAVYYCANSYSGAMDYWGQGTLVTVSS VL: DDVLTQTPLSLPVTPGQPASISCRSSQSIVHSIGNTFFEWYLQKPGQSPQLLIYKVSNRFSGVPDRFSGSGSGTDFTLKISRVEAEDVGVYYCFQGSLVPWTFGQGTKVEIK | 7.61
hu37D3.v28.57 (antibody, V domains shown) VH: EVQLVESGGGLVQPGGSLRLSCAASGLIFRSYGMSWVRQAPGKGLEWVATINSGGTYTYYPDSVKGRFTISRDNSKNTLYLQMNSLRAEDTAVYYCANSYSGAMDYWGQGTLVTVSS VL: DDVLTQTPLSLPVTPGQPASISCRSSQSIVHSNFNTYFEWYLQKPGQSPQLLIYKVSNRFSGVPDRFSGSGSGTDFTLKISRVEAEDVGVYYCFQGSLVPWTFGQGTKVEIK | 8.36

Next binder, please.
Please report pKd for the following binder: hu37D3-H9.v31.6 (antibody, V domains shown) VH: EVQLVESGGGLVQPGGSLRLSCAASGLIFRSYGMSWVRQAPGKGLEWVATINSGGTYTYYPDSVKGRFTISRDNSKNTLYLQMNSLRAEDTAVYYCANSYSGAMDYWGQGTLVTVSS VL: DDVLTQTPLSLPVTPGQPASISCRSSQSIVHSNAYTYFEWYLQKPGQSPQLLIYKVSNRFSGVPDRFSGSGSGTDFTLKISRVEAEDVGVYYCFQGSLVPWTFGQGTKVEIK 7.81
